Entries annotated with measured melting point

Sample answers from the record:
| compound | readoutName | assayResult |
| --- | --- | --- |
| CCN(CC)CCNC(=O)N1CCCC(S(=O)(=O)c2ccc(C)cc2)C1 (stereo not given) | melting point | 116 to 118 °C |
| CC(=O)N(CCOc1cccc2ccccc12)c1ccc(C(=O)O)cc1 | melting point | 182 to 183 °C |
| CC(C)[C@H](NC(=O)OCc1ccccc1)C(=O)NC(Cc1ccccc1)C(O)C(Cc1ccccc1)NC(=O)OC(C)(C)C (stereo not given in full) | melting point | 187 to 188 °C |

Give its melting point value. Item: Cc1nc(-c2ccccc2)nc(-c2ccncc2)c1N 208 to 209 °C

And then O=c1ccc(-c2c(-c3ccccc3)nn3ccccc23)nn1[C@H]1CC[C@@H](C(=O)O)CC1 , what is it? 193 to 195 °C

Where these numbers come from: a melting point compilation (Tetko et al.; mined from patent text by program, amines drawn as free bases though some values may be those of a salt)
